- Assay name: Rat pharmacokinetic study
- Assay type: in vivo
- Assay context: plasma, oral 3 mg/kg vs intravenous 1 mg/kg, male Wistar rats
Could you please report measured bioavailability for the items listed next?
Answers are plain numbers, in %.

Some entries whose results are on file:
INSERT INTO assay_data (molecule, assay_metric, observed_measurement) VALUES
  ('CC(C)n1c(=O)c(C(=O)NC2CC3CCC(C2)N3CCNS(C)(=O)=O)cc2cccn21.O=C(O)C(O)C(O)C(=O)O (stereo not shown) [Example 28]', 'bioavailability', 43),
  ('COC(=O)NCCCN1C2CCC1CC(NC(=O)c1cc3cccn3n(C(C)C)c1=O)C2.O=C(O)C(O)C(O)C(=O)O (stereo not shown) [Example 34]', 'bioavailability', 77),
  ('CC(C)n1c(=O)c(C(=O)NC2CC3CCC(C2)N3C[C@@H](O)CN(C)S(C)(=O)=O)cc2cccn21.O=C(O)C(O)C(O)C(=O)O (single isomer, unassigned) [Example 2]', 'bioavailability', 83);

# evaluate next
Q) Would you mind telling me what bioavailability value was observed for CC(C)n1c(=O)c(C(=O)NC2CC3CCC(C2)N3C[C@H](O)CN(C)S(C)(=O)=O)cc2cccn21.O=C(O)C(O)C(O)C(=O)O (single isomer, unassigned) [Example 4] ?
A) 12

----------
Could you please report measured pEC50 for the items listed next?
- Experimental system: 5-HT4 receptors (Homo sapiens (Human))
- Sequence (Q13639 whole entry): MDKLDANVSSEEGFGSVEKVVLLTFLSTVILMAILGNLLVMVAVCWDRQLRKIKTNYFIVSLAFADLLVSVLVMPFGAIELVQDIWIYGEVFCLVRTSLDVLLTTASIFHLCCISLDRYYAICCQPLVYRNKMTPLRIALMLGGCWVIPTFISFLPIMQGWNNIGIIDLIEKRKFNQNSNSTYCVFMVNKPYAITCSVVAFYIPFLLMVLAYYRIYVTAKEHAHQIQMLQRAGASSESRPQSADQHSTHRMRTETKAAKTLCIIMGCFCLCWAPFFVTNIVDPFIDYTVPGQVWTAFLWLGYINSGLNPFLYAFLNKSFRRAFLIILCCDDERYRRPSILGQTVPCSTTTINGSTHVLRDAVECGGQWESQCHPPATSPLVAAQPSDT
- Assay name: Determination of EC50 values for 5-HT4 receptor (pCRE-Luc reporter assay)
- Assay context: CHO cells expressing recombinant human 5-HT4 receptor and pCRE-Luc reporter; 4 h incubation; luciferase activity
One number for each entry, as −log10 of the molar value.

Some entries whose results are on file:
INSERT INTO measurements (molecule, experimental_system, assay_metric, observed_measurement) VALUES
  ('COC(=O)NCCCN1C2CCC1CC(NC(=O)c1cc3cccn3n(C(C)C)c1=O)C2.O=C(O)C(O)C(O)C(=O)O (stereo not shown)', '5-HT4 receptors (Homo sapiens (Human))', 'pEC50', 7.74),
  ('CC(C)n1c(=O)c(C(=O)NC2CC3CCC(C2)N3CCCN(C)S(C)(=O)=O)cc2cccn21 (stereo not shown)', '5-HT4 receptors (Homo sapiens (Human))', 'pEC50', 7.24),
  ('CC(=O)NCCCN1C2CCC1CC(NC(=O)c1cc3cccn3n(C(C)C)c1=O)C2 (stereo not shown)', '5-HT4 receptors (Homo sapiens (Human))', 'pEC50', 7.45);

Field: pEC50. Fill in for each record below.
1. CC(C)n1c(=O)c(C(=O)NC2CC3CCC(C2)N3C[C@@H](O)CN(C)S(C)(=O)=O)c(O)c2cccn21 (stereo partly shown) [Example 7]
2. CC(=O)N1CCN(CCN2C3CCC2CC(NC(=O)c2cc4cccn4n(C(C)C)c2=O)C3)CC1 (stereo not shown)
3. CC(C)n1c(=O)c(C(=O)NC2CC3CCC(C2)N3C[C@H](O)CN(C)S(C)(=O)=O)cc2cccn21.O=C(O)C(O)C(O)C(=O)O (single isomer, unassigned)
4. CC(C)n1c(=O)c(C(=O)NC2CC3CCC(C2)N3CCCNS(C)(=O)=O)cc2cccn21 (stereo not shown)

A)
1: 8.00; 2: 7.81; 3: 8.00; 4: 7.96

----------
Could you please report measured Kp for the items listed next?
- Assay name: Rat brain penetration study
- Type: in vivo
- Assay context: brain/plasma, oral (gavage) 3 mg/kg, male Wistar rats, brain concentrations below LLOQ taken as zero, read-out: Single dose Brain Penetration (Cb/Cp)
Give bare numbers.

Some entries whose results are on file:
INSERT INTO results (compound, assay_metric, observed_measurement) VALUES
  ('COC(=O)NCCCN1C2CCC1CC(NC(=O)c1cc3cccn3n(C(C)C)c1=O)C2.O=C(O)C(O)C(O)C(=O)O (stereo not shown) [Example 34]', 'Kp', 0),
  ('CC(C)n1c(=O)c(C(=O)NC2CC3CCC(C2)N3CCNS(C)(=O)=O)cc2cccn21.O=C(O)C(O)C(O)C(=O)O (stereo not shown) [Example 28]', 'Kp', 0),
  ('CC(C)n1c(=O)c(C(=O)NC2CC3CCC(C2)N3C[C@@H](O)CN(C)S(C)(=O)=O)cc2cccn21.O=C(O)C(O)C(O)C(=O)O (single isomer, unassigned) [Example 2]', 'Kp', 0);

# evaluate next
Q) Would you mind telling me what Kp value was observed for CC(C)n1c(=O)c(C(=O)NC2CC3CCC(C2)N3C[C@H](O)CN(C)S(C)(=O)=O)cc2cccn21.O=C(O)C(O)C(O)C(=O)O (single isomer, unassigned) [Example 4] ?
A) 0
